system: Streptococcus pneumoniae; assay: In vitro antibacterial activity against Streptococcus pneumoniae 5649 (efflux-resistant strain bearing a mef (E) gene); assay type: functional
Task for the reader: assign each of the following molecules its reported MIC.
Answers are plain numbers, in µg/mL.

| MOLECULE | VALUE UNITS | MIC |
| --- | --- | --- |
| CC[C@H]1OC(=O)[C@H](C)C(=O)[C@H](C)[C@@H](O[C@@H]2O[C@H](C)C[C@H](N(C)C)[C@H]2O)[C@@](C)(OC)C[C@@H](C)/C(=N\OCCNCC2CCC(CNCc3cccc(Oc4ccccc4)c3)CC2)[C@H](C)[C@@H](O)[C@]1(C)O (some centres undefined) | µg/mL | 0.12 |
| CC[C@H]1OC(=O)[C@H](C)C(=O)[C@H](C)[C@@H](O[C@@H]2O[C@H](C)C[C@H](N(C)C)[C@H]2O)[C@@](C)(OC)C[C@@H](C)/C(=N\OCCNCCCOCCCNCc2cn(C)c3ccc(F)cc23)[C@H](C)[C@@H](O)[C@]1(C)O | µg/mL | 0.06 |
| CC[C@H]1OC(=O)[C@H](C)C(=O)[C@H](C)[C@@H](O[C@@H]2O[C@H](C)C[C@H](N(C)C)[C@H]2O)[C@@](C)(OC)C[C@@H](C)/C(=N\OCCNCCCCNCc2ccc(Oc3ccccc3)cc2)[C@H](C)[C@@H](O)[C@]1(C)O | µg/mL | 0.25 |

Proceed to the following item.
The recorded MIC for entry `CC[C@H]1OC(=O)[C@H](C)C(=O)[C@H](C)[C@@H](O[C@@H]2O[C@H](C)C[C@H](N(C)C)[C@H]2O)[C@@](C)(OC)C[C@@H](C)/C(=N\OCCNCCCCCCNCc2cccc(Oc3ccccc3)c2)[C@H](C)[C@@H](O)[C@]1(C)O` equals 0.5

Reference source: ChEMBL document CHEMBL1146813
